The values you see were collected from PubChem BioAssay (NCI).

In this section we review reported TGI values for a set of molecules.
System: MDA-MB-435
Assay: NCI tumour cell line growth inhibition, 48 h

Look over these answered cases.
O=C(O)c1cc2ccccc2c(N=Nc2ccc(S(=O)(=O)Nc3ccccn3)cc2)c1O :: > 100 µM
O=C(/C=C/c1ccc([N+](=O)[O-])cc1)N1CCN(CCOC(c2ccc(F)cc2)c2ccc(F)cc2)CC1 :: > 100 µM
CCNCC(=O)Nc1ccc2c(c1)C(=O)c1ccc(NC(=O)CNCC)cc1C2=O :: 6.18 µM
CCOC(=O)C(=[N+]=[N-])C(=O)CSC#N :: > 100 µM
O=C(NCCCCCCCCNC(=O)Nc1cccc2ccccc12)Nc1cccc2ccccc12 :: 81.3 µM
CCCCCCCCCCC/C=C(/C(=O)CCCO[Si](C)(C)C(C)(C)C)C(=O)OC :: > 100 µM

Would you mind telling me what TGI value was observed for `NCCCN(CCCCN(CCCN)Cc1ccccc1)Cc1ccccc1` ? > 100 µM

Quick one: TGI for `Cc1cc(-c2nc3sc(C)cn3c2/C=N/N=C(N)N)c(C)s1` ? 4.79 µM

# lookup: TGI of N#Cc1ccc(C2ON=C(c3ccccc3)N2C23CC4CC(CC(C4)C2)C3)cc1 (configuration not stated) > 10 µM

Reported TGI for `Cc1cccc2c(=O)c3c(sc12)c(NCCCNCCO)nc1ccccc13` : what is it? 3.18 µM

I am curious: what TGI value has been reported for `Cc1[nH]c2ncn3[nH]c(=S)nc3c2c1Cc1ccccc1` ? > 100 µM

# lookup: TGI of `Oc1nc(N2CCOCC2)sc1/C=C1\C=Nc2ccccc21` > 100 µM

Query: TGI; subject: `O=C1c2ccccc2CC12Cc1cc3c(cc1C2)CCC3` > 100 µM
